Species: Homo sapiens
Assay: Antiproliferative activity against human RKOP3 cells assessed as reduction in cell viability measured after 48 hrs by MTT assay
Assay type: functional, cell-based

compound | inhibition
CCCCC(=O)O/N=C1\C=C2C[C@H](C)[C@@]3(C)Cc4cc(OC)c(OC)c(OC)c4C23C(OC)=C1OC (some centres undefined) | Dose-dependent effect
CCOC(=O)CCC(=O)O/N=C1\C=C2C[C@H](C)[C@@]3(C)Cc4cc(OC)c(OC)c(OC)c4C23C(OC)=C1OC (some centres undefined) | Dose-dependent effect
CCC(=O)O/N=C1\C=C2C[C@H](C)[C@@]3(C)Cc4cc(OC)c(OC)c(OC)c4C23C(OC)=C1OC (some centres undefined) | Dose-dependent effect
COC1=C(OC)C23C(=CC1=O)C[C@H](C)[C@@]2(C)Cc1cc(OC)c(OC)c(OC)c13 (some centres undefined) | Dose-dependent effect

---

Some compounds, each annotated with its measured pIC50.
Tested on: HeLa
Experiment: Antiproliferative activity against human HeLa cells assessed as reduction in cell viability measured after 48 hrs by MTT assay
Format: functional, cell-based
The value called pIC50 is obtained by taking minus log10 of the concentration in mol/L.

Examples from the recorded data:
compound | measure name | endpoint result
COC1=C(OC)C23C(=C/C1=N\OC(=O)C1CC1)C[C@H](C)[C@@]2(C)Cc1cc(OC)c(OC)c(OC)c13 (some centres not stated) | pIC50 | 4.82
COC1=C(OC)C23C(=C/C1=N\OC(=O)c1ccc(F)cc1)C[C@H](C)[C@@]2(C)Cc1cc(OC)c(OC)c(OC)c13 (some centres not stated) | pIC50 | 5.26
COc1cc2c(c(OC)c1OC)-c1c(cc(OC)c(OC)c1OC)C[C@](C)(O)[C@@H](C)C2 [SCHIZANDRIN] | pIC50 | 5.30
COC1=C(OC)C23C(=C/C1=N\O)C[C@H](C)[C@@]2(C)Cc1cc(OC)c(OC)c(OC)c13 (some centres not stated) | pIC50 | 4.30
COc1cccc2c1C(=O)c1c(O)c3c(c(O)c1C2=O)C[C@@](O)(C(=O)CO)C[C@@H]3O[C@H]1C[C@H](N)[C@H](O)[C@H](C)O1 [DOXORUBICIN] | pIC50 | 5.71
CCCCC(=O)O/N=C1\C=C2C[C@H](C)[C@@]3(C)Cc4cc(OC)c(OC)c(OC)c4C23C(OC)=C1OC (some centres not stated) | pIC50 | 4.89

Entry CCC(=O)O/N=C1\C=C2C[C@H](C)[C@@]3(C)Cc4cc(OC)c(OC)c(OC)c4C23C(OC)=C1OC (some centres not stated) needs its pIC50 filled in; supply it.
4.34

---

The following molecules are listed with their measured pIC50 values.
Tested on: DU-145
Assay: Antiproliferative activity against human DU145 cells assessed as reduction in cell viability measured after 48 hrs by MTT assay
Type: functional, cell-based
Conditions: DU-145, 48 h
Scale explanation: pIC50 corresponds to minus log10 of a concentration expressed in moles per litre.

Worked cases, answers included:
molecule | tested target | pIC50
COc1cc2c(c(OC)c1OC)-c1c(cc(OC)c(OC)c1OC)C[C@](C)(O)[C@@H](C)C2 | DU-145 | 5.27
COC1=C(OC)C23C(=C/C1=N\OC(=O)c1ccc(F)cc1)C[C@H](C)[C@@]2(C)Cc1cc(OC)c(OC)c(OC)c13 (some centres undefined) | DU-145 | 4.78
CCC(=O)O/N=C1\C=C2C[C@H](C)[C@@]3(C)Cc4cc(OC)c(OC)c(OC)c4C23C(OC)=C1OC (some centres undefined) | DU-145 | 5.47

Supply recorded pIC50 for COc1cccc2c1C(=O)c1c(O)c3c(c(O)c1C2=O)C[C@@](O)(C(=O)CO)C[C@@H]3O[C@H]1C[C@H](N)[C@H](O)[C@H](C)O1 here.
5.60

These data points were gathered from ChEMBL document CHEMBL4622952.
